Assay: Pharmacokinetics in rats after single iv, po or sc dose (plasma and brain)
Format: in vivo, Sprague-Dawley rats
Settings: male, Sprague-Dawley, rat, plasma, sc, 1 mg/kg, rat plasma, SC 1.0 mg eq./kg; read-out: Observed Cmax
Procedure: Sprague Dawley (SD) rats (138 adult males), and C57Bl/6 mice (140 adult males), were obtained (Hilltop Laboratories, Scottsdale, PA); 123 per species were used in the study and the remainder provided blank matrix. […] The area under the plasma concentration versus time curve (AUC) was calculated using the linear trapezoidal method (linear interpolation). […] Concentrations of memantine in rat and mouse plasma and brain were determined using an LC-MS/MS assay developed at ABC Laboratories.
Measurement Type: Cmax (nM)

CC12CC3CC(C)(C1)CC(N)(C3)C2 [memantine]
985
